Where these numbers come from: patent US20240101576A1

pIC50 overview
Target: EGFR exon 20 NPG Ins D770_N771 (Ba/F3 cells) (Homo sapiens, UniProt P00533, INS770NPG)
Construct: expressed in transfected cells; host or cells: Ba/F3 (murine pro-B cells), retroviral transduction, puromycin selection, IL3-independent pool
Sequence (P00533 with tags, fused parts or gaps INS770NPG): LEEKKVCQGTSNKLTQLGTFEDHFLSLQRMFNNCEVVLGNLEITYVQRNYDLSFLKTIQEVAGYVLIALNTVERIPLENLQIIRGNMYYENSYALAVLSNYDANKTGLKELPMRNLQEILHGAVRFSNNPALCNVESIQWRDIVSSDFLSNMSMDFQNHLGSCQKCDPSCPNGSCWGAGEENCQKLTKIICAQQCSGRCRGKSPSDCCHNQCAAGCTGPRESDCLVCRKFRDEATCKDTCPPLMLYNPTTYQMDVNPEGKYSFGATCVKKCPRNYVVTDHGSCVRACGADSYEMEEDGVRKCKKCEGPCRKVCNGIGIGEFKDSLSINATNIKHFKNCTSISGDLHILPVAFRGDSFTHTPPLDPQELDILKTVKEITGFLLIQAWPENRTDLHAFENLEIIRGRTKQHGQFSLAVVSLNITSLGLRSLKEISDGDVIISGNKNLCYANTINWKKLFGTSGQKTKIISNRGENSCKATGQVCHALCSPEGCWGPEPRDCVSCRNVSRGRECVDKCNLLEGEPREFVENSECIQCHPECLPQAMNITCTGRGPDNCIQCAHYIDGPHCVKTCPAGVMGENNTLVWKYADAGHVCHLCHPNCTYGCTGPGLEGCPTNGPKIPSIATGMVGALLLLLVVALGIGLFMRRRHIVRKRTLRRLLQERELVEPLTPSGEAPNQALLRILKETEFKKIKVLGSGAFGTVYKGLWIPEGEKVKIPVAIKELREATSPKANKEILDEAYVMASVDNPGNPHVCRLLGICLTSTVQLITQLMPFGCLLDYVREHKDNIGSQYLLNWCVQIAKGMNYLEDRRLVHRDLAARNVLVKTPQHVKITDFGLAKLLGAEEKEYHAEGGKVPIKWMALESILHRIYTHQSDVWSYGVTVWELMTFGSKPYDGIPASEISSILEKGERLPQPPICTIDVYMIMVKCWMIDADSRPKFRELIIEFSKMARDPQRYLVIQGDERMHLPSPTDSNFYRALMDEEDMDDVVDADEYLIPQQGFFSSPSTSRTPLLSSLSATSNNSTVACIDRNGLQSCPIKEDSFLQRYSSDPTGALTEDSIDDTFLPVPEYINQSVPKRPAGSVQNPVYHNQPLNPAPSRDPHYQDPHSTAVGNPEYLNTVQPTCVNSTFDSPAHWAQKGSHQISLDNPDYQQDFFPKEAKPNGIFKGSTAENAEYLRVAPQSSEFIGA
Assay: Inhibitor activity on EGFR-dependent cell growth (CellTiter-Glo, 72 h), Ba/F3 EGFR exon 20 NPG Ins
Type: cell-based
Settings: read-out: BaF3 NPG IC50
pIC50: −log10 of the molar value.

Some compounds with recorded pIC50:
COMPOUND	ASSAY RESULT
COc1c(Cl)cccc1Nc1c(-c2ccnc(N)n2)[nH]c2c1C(=O)NCC2 [Compound 148]	> 7.00
CNc1ccc2nccc(-c3[nH]c4c(c3Nc3cccc(Cl)c3OC)C(=O)NCC4)c2n1 [Compound 152]	> 7.00
COCC[C@@H]1CNC(=O)c2c1[nH]c(-c1ccncc1F)c2Nc1cccc(Cl)c1OC [Compound 746]	> 7.00
C=CC(=O)N1CCC2(CC1)CNC(=O)c1c2[nH]c(-c2ccnc(C)n2)c1Nc1cccc(Cl)c1OC [compound 643]	> 7.00
COc1c(F)cccc1Nc1c(-c2ccnc(Nc3cnnn3C)n2)[nH]c2c1C(=O)NCC2 [compound 591]	> 7.00
COc1c(Cl)cccc1Nc1c(-c2ccncn2)[nH]c2c1C(=O)NCC2C[C@H]1COCCO1 (single isomer, unassigned) [Compound 574]	> 7.00

# context switch: different compound, same pIC50
pIC50 lookup needed for COc1c(Cl)cccc1Nc1c(-c2ccnc3ccc(OCC(F)(F)F)nc23)[nH]c2c1C(=O)NCC2 [compound 763] , thanks. 6.00 to 7.00

====

We begin with a simple list: items and their reported pIC50.
Target: EGFR WT (Ba/F3 cells) (Homo sapiens)
Sequence (P00533 25-1210): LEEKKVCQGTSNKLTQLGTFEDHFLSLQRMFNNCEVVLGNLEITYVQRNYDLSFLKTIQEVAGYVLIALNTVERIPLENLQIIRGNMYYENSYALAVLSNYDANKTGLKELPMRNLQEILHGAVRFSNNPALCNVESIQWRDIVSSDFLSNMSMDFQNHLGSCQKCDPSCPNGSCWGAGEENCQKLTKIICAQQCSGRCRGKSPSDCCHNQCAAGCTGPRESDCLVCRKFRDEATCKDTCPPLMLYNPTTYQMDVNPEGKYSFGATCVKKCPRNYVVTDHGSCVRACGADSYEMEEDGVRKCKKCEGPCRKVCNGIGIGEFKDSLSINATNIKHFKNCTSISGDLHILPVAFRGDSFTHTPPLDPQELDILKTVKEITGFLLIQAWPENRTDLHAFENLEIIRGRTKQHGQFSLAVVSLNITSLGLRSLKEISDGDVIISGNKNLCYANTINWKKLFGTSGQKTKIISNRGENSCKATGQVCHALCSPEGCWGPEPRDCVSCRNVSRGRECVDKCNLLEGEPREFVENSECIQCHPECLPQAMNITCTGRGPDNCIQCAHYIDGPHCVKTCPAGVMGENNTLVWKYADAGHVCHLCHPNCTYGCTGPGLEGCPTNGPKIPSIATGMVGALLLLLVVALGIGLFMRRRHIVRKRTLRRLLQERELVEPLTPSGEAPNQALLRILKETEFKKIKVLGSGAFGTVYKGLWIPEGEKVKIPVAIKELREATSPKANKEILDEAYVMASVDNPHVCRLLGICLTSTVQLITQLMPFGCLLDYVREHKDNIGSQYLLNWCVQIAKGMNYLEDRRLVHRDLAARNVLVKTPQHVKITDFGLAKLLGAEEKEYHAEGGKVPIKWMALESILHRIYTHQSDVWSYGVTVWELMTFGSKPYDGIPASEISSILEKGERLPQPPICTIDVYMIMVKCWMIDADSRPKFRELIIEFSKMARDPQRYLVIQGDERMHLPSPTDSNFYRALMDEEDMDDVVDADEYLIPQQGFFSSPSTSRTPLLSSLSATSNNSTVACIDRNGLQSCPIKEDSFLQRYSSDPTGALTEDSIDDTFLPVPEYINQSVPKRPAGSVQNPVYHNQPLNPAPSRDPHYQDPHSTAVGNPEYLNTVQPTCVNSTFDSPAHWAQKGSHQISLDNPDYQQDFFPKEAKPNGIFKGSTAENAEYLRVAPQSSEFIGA
Assay: Inhibitor activity on EGFR-dependent cell growth (CellTiter-Glo, 72 h), Ba/F3 EGFR WT
Details: read-out: BaF3 WT IC50
pIC50: −log10 of the molar value.

The examples below pair each entry with its known result.
COMPOUND	MEASUREMENT KIND	ASSAY RESULT
COC[C@@H]1CNC(=O)c2c1[nH]c(-c1ccnc3ccc(OC)nc13)c2Nc1cccc(Cl)c1OC (single isomer, unassigned) [Compound 765]	pIC50	> 7.00
COc1c(Cl)cccc1Nc1c(-c2ccncc2)[nH]c2c1C(=O)NC[C@H]2C[C@@H]1CN(C)CCO1 [Compound 645]	pIC50	< 6.00

Consider the additional compound presented here.
pIC50 of COc1c(Cl)cccc1Nc1c(-c2ccncc2F)[nH]c2c1C(=O)NC[C@@H]2CC(C)(C)O [Compound 496] on EGFR WT (Ba/F3 cells) (Homo sapiens)? < 6.00

====

Target: EGFR exon 20 ASV Ins V769_D770 (Ba/F3 cells) (Homo sapiens, UniProt P00533, INS769ASV)
Construct: expressed in transfected cells; host or cells: Ba/F3 (murine pro-B cells), retroviral transduction, puromycin selection, IL3-independent pool
Sequence (P00533 with tags, fused parts or gaps INS769ASV): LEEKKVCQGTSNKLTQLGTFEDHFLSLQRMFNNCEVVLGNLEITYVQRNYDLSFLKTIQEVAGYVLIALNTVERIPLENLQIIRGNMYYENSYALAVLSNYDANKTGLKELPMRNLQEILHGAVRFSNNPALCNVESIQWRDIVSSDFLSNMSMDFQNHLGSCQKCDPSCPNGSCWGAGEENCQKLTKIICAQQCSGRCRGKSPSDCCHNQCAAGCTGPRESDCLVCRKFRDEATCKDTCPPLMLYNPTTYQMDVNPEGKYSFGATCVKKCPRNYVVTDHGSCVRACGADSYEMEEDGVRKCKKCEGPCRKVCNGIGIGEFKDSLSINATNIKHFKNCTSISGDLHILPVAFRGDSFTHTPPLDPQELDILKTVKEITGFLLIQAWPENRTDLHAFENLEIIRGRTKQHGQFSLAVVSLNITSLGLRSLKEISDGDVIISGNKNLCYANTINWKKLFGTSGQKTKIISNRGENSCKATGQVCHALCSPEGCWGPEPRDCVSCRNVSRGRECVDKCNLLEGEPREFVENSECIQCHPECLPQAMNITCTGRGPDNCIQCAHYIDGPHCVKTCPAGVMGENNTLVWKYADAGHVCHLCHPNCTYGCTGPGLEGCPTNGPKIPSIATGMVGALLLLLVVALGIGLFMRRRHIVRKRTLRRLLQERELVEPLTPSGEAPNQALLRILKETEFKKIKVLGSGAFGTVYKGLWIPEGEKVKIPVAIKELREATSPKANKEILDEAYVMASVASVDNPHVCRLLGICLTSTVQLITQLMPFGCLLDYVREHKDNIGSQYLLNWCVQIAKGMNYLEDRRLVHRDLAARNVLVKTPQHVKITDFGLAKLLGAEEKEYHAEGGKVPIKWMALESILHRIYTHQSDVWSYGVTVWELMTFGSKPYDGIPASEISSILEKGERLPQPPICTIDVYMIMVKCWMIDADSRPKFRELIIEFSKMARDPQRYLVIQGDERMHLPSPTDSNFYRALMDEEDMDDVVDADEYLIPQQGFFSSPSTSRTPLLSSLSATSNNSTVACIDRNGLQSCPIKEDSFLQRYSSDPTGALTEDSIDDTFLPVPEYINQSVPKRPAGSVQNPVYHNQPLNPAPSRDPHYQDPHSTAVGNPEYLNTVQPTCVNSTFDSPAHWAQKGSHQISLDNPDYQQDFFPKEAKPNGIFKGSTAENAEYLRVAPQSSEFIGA
Assay: Inhibitor activity on EGFR-dependent cell growth (CellTiter-Glo, 72 h), Ba/F3 EGFR exon 20 ASV Ins
Type: cell-based
Conditions: read-out: BaF3 ASV IC50
pIC50: −log10 of the molar value.
MEASUREMENT KIND: pIC50

COMPOUND	TESTED SYSTEM	ASSAY RESULT
C=CC[C@H]1CNC(=O)c2c1[nH]c(-c1ccncc1F)c2Nc1cccc(Cl)c1OC	EGFR exon 20 ASV Ins V769_D770 (Ba/F3 cells) (Homo sapiens, UniProt P00533, INS769ASV)	< 6.00
COc1c(F)cccc1Nc1c(-c2ccncn2)[nH]c2c1C(=O)NCC2	EGFR exon 20 ASV Ins V769_D770 (Ba/F3 cells) (Homo sapiens, UniProt P00533, INS769ASV)	< 6.00
COc1c(Cl)cccc1Nc1c(-c2ccncc2)[nH]c2c1C(=O)NC[C@H]2C[C@@H]1CN(C)CCO1	EGFR exon 20 ASV Ins V769_D770 (Ba/F3 cells) (Homo sapiens, UniProt P00533, INS769ASV)	> 7.00
COc1c(Cl)cccc1Nc1c(-c2ccnc(NCc3ccn(C)n3)n2)[nH]c2c1C(=O)NCC2	EGFR exon 20 ASV Ins V769_D770 (Ba/F3 cells) (Homo sapiens, UniProt P00533, INS769ASV)	> 7.00
COc1c(Cl)cccc1Nc1c(-c2ccncc2F)[nH]c2c1C(=O)NC[C@@]21CCN(CC(F)(F)F)C1	EGFR exon 20 ASV Ins V769_D770 (Ba/F3 cells) (Homo sapiens, UniProt P00533, INS769ASV)	> 7.00
C=CC(=O)N1CCC2(CC1)CNC(=O)c1c2[nH]c(-c2ccnc(C)n2)c1Nc1cc(F)cc(F)c1OC	EGFR exon 20 ASV Ins V769_D770 (Ba/F3 cells) (Homo sapiens, UniProt P00533, INS769ASV)	> 7.00
COc1c(Cl)cccc1Nc1c(-c2ccnc3ccc(OC4CC4)nc23)[nH]c2c1C(=O)NCC21CC1	EGFR exon 20 ASV Ins V769_D770 (Ba/F3 cells) (Homo sapiens, UniProt P00533, INS769ASV)	> 7.00
Cc1c(F)cccc1Nc1c(-c2nc(N)ncc2F)[nH]c2c1C(=O)NCC2	EGFR exon 20 ASV Ins V769_D770 (Ba/F3 cells) (Homo sapiens, UniProt P00533, INS769ASV)	< 6.00
COCC[C@H]1CNC(=O)c2c1[nH]c(-c1ccncc1F)c2Nc1cccc(F)c1C	EGFR exon 20 ASV Ins V769_D770 (Ba/F3 cells) (Homo sapiens, UniProt P00533, INS769ASV)	6.00 to 7.00
C=CC(=O)N1CCC2(CC1)CNC(=O)c1c2[nH]c(-c2ccncc2F)c1Nc1cccc(Br)c1OC	EGFR exon 20 ASV Ins V769_D770 (Ba/F3 cells) (Homo sapiens, UniProt P00533, INS769ASV)	> 7.00

Return reported pIC50; argument: Nc1nccc(-c2[nH]c3c(c2Nc2ccc(F)c(F)c2)C(=O)NCC3)n1 < 6.00

# repeat for COc1c(Cl)cccc1Nc1c(-c2ccnc(NC(=O)C3CC3)n2)[nH]c2c1C(=O)NCC2 6.00 to 7.00

// repeat for Nc1nccc(-c2[nH]c3c(c2Nc2cccc4c2OCO4)C(=O)NCC3)n1 and report < 6.00

Same for COCCOc1ccc2nccc(-c3[nH]c4c(c3Nc3cccc(Cl)c3OC)C(=O)NCC4)c2n1 > 7.00

# iterate: COc1ncc2nccc(-c3[nH]c4c(c3Nc3cccc(Cl)c3OC)C(=O)N[C@H](C(F)(F)F)C4)c2n1 < 6.00

Could you do the same for COCC[C@@H]1CNC(=O)c2c1[nH]c(-c1ccncn1)c2Nc1cccc(Cl)c1OC [445a] , please? > 7.00
